- experiment summary: […] solubility of the compound in water after 24 hrs by HPLC analysis
- Format: physicochemical
- recorded conditions: water
measured quantity: solubility at 24 h
I'd appreciate it if you included the unit after the number.

Recorded result, `CC(C)(C)c1cc(C(=O)/C(C#N)=N/Nc2cccc(Cl)c2)no1` , solubility at 24 h: 18 µM

* * *

Recorded Ratio IC50, one value per entry.
- target or test system: Rap guanine nucleotide exchange factor 4 (Mus musculus) (UniProt Q9EQZ6)
- Sequence (Q9EQZ6 whole entry): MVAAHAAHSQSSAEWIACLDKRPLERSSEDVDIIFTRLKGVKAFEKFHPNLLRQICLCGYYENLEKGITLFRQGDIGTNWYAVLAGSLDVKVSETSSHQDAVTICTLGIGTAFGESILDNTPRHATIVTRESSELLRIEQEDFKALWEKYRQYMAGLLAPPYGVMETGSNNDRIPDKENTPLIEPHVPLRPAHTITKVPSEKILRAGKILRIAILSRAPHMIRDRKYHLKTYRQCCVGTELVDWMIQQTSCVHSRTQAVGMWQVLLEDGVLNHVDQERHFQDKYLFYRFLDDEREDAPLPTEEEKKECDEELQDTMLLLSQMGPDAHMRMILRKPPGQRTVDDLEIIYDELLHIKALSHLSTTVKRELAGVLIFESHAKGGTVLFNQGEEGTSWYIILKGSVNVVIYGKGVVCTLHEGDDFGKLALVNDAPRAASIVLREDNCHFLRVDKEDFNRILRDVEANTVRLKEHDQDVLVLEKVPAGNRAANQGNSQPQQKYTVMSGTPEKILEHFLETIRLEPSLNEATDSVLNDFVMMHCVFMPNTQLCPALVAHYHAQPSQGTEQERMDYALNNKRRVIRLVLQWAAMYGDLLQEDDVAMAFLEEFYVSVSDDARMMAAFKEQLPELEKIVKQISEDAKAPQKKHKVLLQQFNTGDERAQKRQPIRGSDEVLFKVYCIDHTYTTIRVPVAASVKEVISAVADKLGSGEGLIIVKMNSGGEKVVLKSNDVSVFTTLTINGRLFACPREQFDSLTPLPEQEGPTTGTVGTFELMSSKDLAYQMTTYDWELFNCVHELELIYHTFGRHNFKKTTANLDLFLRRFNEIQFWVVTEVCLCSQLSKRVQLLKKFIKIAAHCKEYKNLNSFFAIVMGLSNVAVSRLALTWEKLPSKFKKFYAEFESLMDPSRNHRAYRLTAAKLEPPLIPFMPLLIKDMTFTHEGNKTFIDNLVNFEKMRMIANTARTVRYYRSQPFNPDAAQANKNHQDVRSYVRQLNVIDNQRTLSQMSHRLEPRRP
- experiment summary: Ratio of cAMP IC50 to compound IC50 for displacement of 8-NBD-cAMP from mouse recombinant EPAC2 by fluorescence assay

Worked examples, 2 molecules total:
| molecular string | target or test system | measured quantity | reading |
| --- | --- | --- | --- |
| CC(C)(C)c1cc(C(=O)/C(C#N)=N/Nc2cc(F)cc(F)c2)no1 | Rap guanine nucleotide exchange factor 4 (Mus musculus) (UniProt Q9EQZ6) | Ratio IC50 | 6 |
| CC(C)(C)c1cc(C(=O)/C(C#N)=N/Nc2ccc(Cl)c(F)c2)no1 | Rap guanine nucleotide exchange factor 4 (Mus musculus) (UniProt Q9EQZ6) | Ratio IC50 | 7.4 |

Note to self: Ratio IC50 recorded for `CC(C)(C)c1cc(C(=O)/C(C#N)=N/Nc2cccc(Cl)c2Cl)no1` was 0.9
